assay: OD615 S. cerevisiae growth inhibition, permissive medium, pilot counter-assay, permissive growth control for S. cerevisiae lifespan shortening project (AID 705); details: OD615, 24 h, at 10 µM, hits give high values
measurement kind: growth inhibition (%)

>>> test_result("CC(C)OC(=O)CSc1nnc(-c2ccc(Cl)cc2)n1N")
-3.53
>>> test_result("Cc1occc1C(=O)NCc1ccc2c(c1)OCO2")
-7.06
>>> test_result("O=C(O)c1ccc(NC(=O)C2C3CCC(C3)C2C(=O)O)cc1 (centres undefined)")
7
>>> test_result("CC(C)(C)Nc1ncnc2c1cnn2-c1ccccc1")
-3.38
>>> test_result("CC(=O)c1cccc(NC(=O)C2CCCN(S(=O)(=O)c3cccc4cccnc34)C2)c1 (centres undefined)")
-10.5
>>> test_result("CCOC(=O)N1CCC(NC(=O)c2cc3c(-c4ccc(Cl)cc4)nn(C)c3s2)CC1")
-2.75
>>> test_result("O=C(CC12CC3CC(CC(C3)C1)C2)NCO")
4.32
>>> test_result("O=C(c1ccc(CS(=O)(=O)c2ccc(Br)cc2)o1)N1CCN(c2ccccn2)CC1")
-5.91
>>> test_result("CCCCn1c(CCCNC(=O)CC)nc2ccccc21")
0.535
>>> test_result("O=C(Nc1ccccc1)N1CCN2C(=O)c3ccccc3C12c1ccccc1 (centres undefined)")
-7.51
>>> test_result("CC(C)c1cc(NC(=O)CSc2nnc(-c3ccccc3F)n2C)on1")
-6.68
>>> test_result("O=C(c1ccccc1)N1CCN(C2CC(=O)N(CCc3ccccc3)C2=O)CC1 (centres undefined)")
-3.21
>>> test_result("Cc1ccc(C2c3c(oc4ccc(C)cc4c3=O)C(=O)N2CCCN2CCOCC2)cc1 (centres undefined)")
-8.48
>>> test_result("CC(=O)Nc1c2c(nn1-c1cccc(Cl)c1)CS(=O)C2 (centres undefined)")
3.89
>>> test_result("CCOc1ccc(OCC)c(NS(=O)(=O)c2cccc3nsnc23)c1")
-13.8
>>> test_result("Cn1c(Cn2c(=O)sc3ccccc32)nnc1SCC(=O)NCc1ccccc1")
-10.1
>>> test_result("C=CCOC(=O)CCP(=O)(CCC(=O)OCC=C)c1ccccc1")
5.05
>>> test_result("CCCN1C(=O)c2cc(C(=O)Nc3ccccc3CC)ccc2C1O (centres undefined)")
-6.36
>>> test_result("COc1ccc(OCC(=O)Nc2ccccc2OC)cc1")
11.4
>>> test_result("CCC/C(O)=C1\\C(=O)CC(C)(C)CC1=NCCO")
1.41
>>> test_result("CC(=O)N1c2ccccc2N(Cc2ccc(C)cc2C)C(=O)C1(C)C")
-6.6
>>> test_result("Cn1cc(S(=O)(=O)CC(=O)Nc2ccc3c(c2)OCO3)c2ccccc21")
-1.92
>>> test_result("CCOc1ccc(/C(=N\\O)C(C)NO)cc1 (centres undefined)")
-16.4
>>> test_result("CCc1ccccc1N1CC23C=CC(O2)C(C(=O)OC)C3C1=O (centres undefined)")
-17.5
>>> test_result("Cc1ccc(C2/C(=C(/O)c3ccc(Br)cc3)C(=O)C(=O)N2Cc2ccco2)o1 (centres undefined)")
-16.2
>>> test_result("Cc1cc(SCC(=O)c2ccccc2)n2nc(C)nc2n1")
-12.2
>>> test_result("COc1cccc(-c2nc(CS(=O)CC(=O)NCc3ccccc3Cl)c(C)o2)c1 (centres undefined)")
-0.545
>>> test_result("O=C(c1ccc(-c2ccccc2)cc1)N1CCCC1")
0.63
>>> test_result("O=C(c1ccc(=O)[nH]c1)N(Cc1ccco1)C1(C(=O)NC2CCCCC2)CCCCC1")
-20
>>> test_result("CCC(C)NS(=O)(=O)c1ccc(NC(=O)c2c(-c3ccccc3)noc2C)cc1 (centres undefined)")
-6.46
>>> test_result("O=C(NCc1ccc(F)cc1)C1CCC(=O)N1CCc1ccccc1 (centres undefined)")
-5.54
>>> test_result("CCC(NC(=O)c1ccccc1NC(=O)c1ccco1)C(=O)O (centres undefined)")
-0.94
>>> test_result("COc1ccc(Cn2c(=O)[nH]c3cc(C(=O)NCCCN4CCCCC4)ccc3c2=O)cc1")
-4.93
>>> test_result("COc1ccccc1NC(=O)c1ccc(S(=O)(=O)N(C)C)cc1")
0.34
>>> test_result("O=C(CN(Cc1ccccc1)S(=O)(=O)c1ccccc1)NC1CC1")
-4.36
>>> test_result("CCCCOC(=O)CCc1n[nH]c(=O)[nH]c1=O")
-11.1
>>> test_result("Cc1ccccc1OCc1nc(-c2ccc(-n3cccc3)cc2)no1")
-22.8
>>> test_result("COc1ccc(NC(C)=O)cc1NC(=O)CSc1nnc(-c2cccnc2)n1C")
-5.75
>>> test_result("Cc1cccc(CCNC(=O)C2CCC(CNc3c(N4CCCC4)c(=O)c3=O)CC2)c1 (centres undefined)")
-6.65

====

assay: viability gain of MRP-1-high H69AR cells under doxorubicin, pilot screen, MRP-1 activator project, CellTiter-Glo, duplicate (AID 807); details: H69AR viability with doxorubicin, CellTiter-Glo luminescence; at 10 µM; hits give high values;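 also: compound pretreatment 18-22 h then 72 h combined with doxorubicin; 0% = doxorubicin alone and 100% = vehicle without doxorubicin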
measurement kind: viability increase (%)

>>> test_result("C=C(C)Cc1c(C)nc(-c2ccccc2)[nH]c1=O")
0.87
>>> test_result("COc1ccc(NC(=O)NCCCN2CCc3ccccc3C2)cc1")
-2.53
>>> test_result("COc1ccccc1Nc1nc(N)nc(CN2CCOCC2)n1")
-0.98
>>> test_result("Cc1cc(=O)[nH]c(Cc2ccc(OC(C)C)cc2)n1")
-1.17
>>> test_result("O=C(NCc1ccc(Cl)c(Cl)c1)c1ccco1")
-3.58
>>> test_result("CCOc1ccc(C2C(C(=O)NC)=C(C)Nc3nc4ccccc4n32)cc1OC (stereo not drawn)")
0.24
>>> test_result("CCc1nnc(SCc2ccc(OC)c(Br)c2)n1N")
-0.5
>>> test_result("COc1ccc(S(=O)(=O)N(CCc2ccccc2)CC(=O)O)cc1OC")
0.57
>>> test_result("COC(=O)C1CCN(C(=O)c2ccc(Cl)c(S(=O)(=O)NCc3cccnc3)c2)CC1")
0.87
>>> test_result("O=C1C2ON(c3ccccc3)C(c3ccncc3)C2C(=O)N1c1ccc(N2CCOCC2)cc1 (stereo not drawn)")
-0.72
>>> test_result("O=C1c2cccnc2C(=O)N1Cc1ccccc1")
-0.58
>>> test_result("O=C(CSc1nnc(Cn2c(=O)sc3ccccc32)n1-c1ccccc1)NCc1ccco1")
-4.7
>>> test_result("CC(C)(C)c1ccc(-c2cc(N)n[nH]2)cc1")
-2.81
>>> test_result("COc1ccc(C2=NOC(C(=O)N3CCN(c4ccccc4OC)CC3)C2)cc1 (stereo not drawn)")
2.8
>>> test_result("CN1CCN(CCCNC(=O)c2cn(C)c3ccc(S(=O)(=O)N(C)C)cc3c2=O)CC1")
-0.23
>>> test_result("CC(C)Cc1nc(C(N)=O)c2[nH]c(=O)n(-c3ccc(F)cc3)c2n1")
-2.13
>>> test_result("O=C(C1CCN(c2ncnc3c2sc2cccc(F)c23)CC1)N1CCOCC1")
-6.73
>>> test_result("CCNc1nc2c(c(=O)[nH]c(=O)n2C)n1Cc1ccc(F)cc1")
-3.05

====

assay: inhibitors of the yeast RAM network, pilot screen, dse1pr::URA3 reporter, 5-FOA selection (AID 869);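 also: 0% = DMSO wells with no growth and 100% = 10 µM 1-NA-PP1 with full growth; RAM network block rescues cells from 5-FOA so hits raise OD615 growth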; details: S. cerevisiae dse1pr::URA3 5-FOA growth, OD615, 2 d; at 10 µM; hits give high values; strain carries analog-sensitive mutant Cbk1 kinase
measurement kind: inhibition (%)

>>> test_result("Cc1n[nH]c(C)c1S(=O)(=O)N(CC(=O)Nc1ccc2c(c1)OCCO2)c1ccc(C(C)C)cc1")
-0.49
>>> test_result("O=C(CN1CC(c2ccccc2)CC1=O)Nc1ccc2c(c1)OCO2 (configuration not stated)")
0.205
>>> test_result("COc1ccc(O)c(-c2[nH]ncc2C(=O)c2ccccc2)c1")
1.27
>>> test_result("CNC(=O)CN1C(=O)c2ccccc2S1(=O)=O")
2.51
>>> test_result("CCOC(=O)c1c(NC(=O)c2ccco2)sc2c1CCCC2")
4.13
>>> test_result("O=S(=O)(NCc1csc(-c2ccccc2)n1)c1ccc(Cl)s1")
0.21
>>> test_result("COC(=O)Cn1c(CCC(=O)O)ccc1-c1ccccc1")
0.12

====

experiment: growth suppression of beta-catenin knockout HCT116, pilot screen, human colon tumor cells (AID 823); conditions: CellTiter-Glo, 60 h, at 10 µM, hits give low values;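 also: 0% = wells killed by 20 µM Hyamine and 100% = untreated DMSO cell wells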
Results filed as inconclusive are left out.
measurement kind: viability (%)

>>> test_result("O=c1sc(N2CCN(c3ccccc3F)CC2)nc2ccsc12")
85.3
>>> test_result("CC(CN(C)Cc1ccccc1)OC(=O)C1COc2ccccc2O1 (stereo not given)")
101
>>> test_result("CCOc1ccc(-c2cc(CCCC(=O)NCc3ccco3)no2)cc1")
86.5
>>> test_result("CN(CCNC(=O)Cn1c(=O)sc2ccccc21)Cc1ccccc1")
77.7
>>> test_result("CC1CCCC(C)N1c1nnc(NC(=O)Cn2c(=O)oc3ccccc32)s1 (stereo not given)")
95.1
>>> test_result("O=C(C1CC(=O)N(C2CCCC2)C1)N1CCN(c2ccc(F)cc2)CC1 (stereo not given)")
94.3
>>> test_result("Cc1ccccc1OCC(=O)Nc1ccccc1N1CCOCC1")
91.7
>>> test_result("CC1CC(C)CN(c2nc3c(c(=O)[nH]c(=O)n3C)n2CCSc2nc3ccccc3o2)C1 (stereo not given)")
93.2
>>> test_result("CC(=O)c1cccc(NC(=O)c2c(F)c(F)c(F)c(F)c2F)c1")
95
>>> test_result("Cn1c(NC(=O)c2cccs2)cc(=O)n(C)c1=O")
107
>>> test_result("Cc1nn(C)c(C)c1S(=O)(=O)N(CC(=O)NCc1ccco1)c1ccc(C(C)C)cc1")
96.8
>>> test_result("CCSc1nnc(Cc2cc(=O)[nH]c(=O)[nH]2)n1-c1ccc(Cl)cc1")
104
>>> test_result("Cn1c(C(C#N)C(=O)Cc2cccc3ccccc23)nc2ccccc21 (stereo not given)")
81.5
>>> test_result("COC(=O)C(C(=O)OC)=C(/C=C/N(C)C)N(C)C")
99.2
>>> test_result("O=S(=O)(NCc1ccc2c(c1)OCO2)c1cnc[nH]1")
107
>>> test_result("CC(=O)NC(CCS(C)(=O)=O)C(=O)Nc1ccc2c(c1)OCO2 (stereo not given)")
109
>>> test_result("CCOC(=O)CN1c2ccccc2NC(=O)CC1C (stereo not given)")
101
>>> test_result("COc1ccc(C(=O)O)cc1Nc1cc(C)nc2ncnn12")
103
>>> test_result("O=C(Cn1cnc2c(cnn2-c2ccc(F)cc2)c1=O)NCCc1ccccc1")
97.6
>>> test_result("CN(CCO)c1ncnc2nc[nH]c12")
104
>>> test_result("Cc1ccccc1C(=O)OCn1nnc2ccccc2c1=O")
88.9
>>> test_result("COc1ccc(C2C3=C(CCCC3=O)Nc3nc(SCc4ccc(C(=O)O)cc4)nn32)cc1OC (stereo not given)")
92.8
>>> test_result("CCNc1nc(OCCNS(=O)(=O)c2cc(C)ccc2C)nc(N(C)C)n1")
78.7
>>> test_result("COc1ccccc1OCC(=O)Nc1ccc(S(=O)(=O)N2CCCCCC2)cc1")
83.1
>>> test_result("Cc1nc2sc(C(c3ccc(C(C)C)cc3)N3CCN(CCO)CC3)c(O)n2n1 (stereo not given)")
97
>>> test_result("O=C(Nc1ccc(S(=O)(=O)N2CCCC2)cc1)C1COc2ccccc2O1 (stereo not given)")
97.8
>>> test_result("O=C(O)CCc1ccc(-c2cccs2)n1-c1ccc(C(=O)O)cc1")
98.7
>>> test_result("COc1ccccc1C1C(C(N)=O)=C(C)Nc2nc(-c3ccccc3Cl)nn21 (stereo not given)")
92.9
>>> test_result("O=C(CN(Cc1ccccc1F)S(=O)(=O)c1ccc(Cl)cc1)NCCCO")
102
>>> test_result("Cc1ccc(OCCn2c(C)c(/C=N/n3cnnc3)c3ccccc32)cc1")
81.5
>>> test_result("CCCOCCOC(=O)C1=C(C)NC(=O)NC1c1cc(Cl)c(O)c(OC)c1 (stereo not given)")
102
>>> test_result("CNC(=O)C1CC(=O)N(c2ccc(C)cc2)C1 (stereo not given)")
98.5
>>> test_result("COc1ccc(NC(=O)C2=C(C)NC(=O)NC2c2cccc(OC)c2OC)c(OC)c1 (stereo not given)")
103
>>> test_result("O=C(NC1CCCc2ccccc21)C1CCC(CNc2c(N3CCOCC3)c(=O)c2=O)CC1 (stereo not given)")
105
>>> test_result("O=C(c1ccc(S(=O)(=O)N2CCOCC2)cc1)N1CCN(c2ccccc2)CC1")
93.7
>>> test_result("CCN1CCN(Cc2nc3c(c(=O)n(C)c(=O)n3C)n2Cc2ccccc2Cl)CC1")
91.7
>>> test_result("Cc1nc2ccccc2c2oc(C(=O)NC3CC3)cc12")
112
>>> test_result("CC1=C(C(=O)OCC2CCCO2)C(c2ccncc2)C2=C(CCCC2=O)N1 (stereo not given)")
98.9
>>> test_result("COc1ccc(NC2=CC(=O)CC(C)(C)C2)cc1OC")
96.8
>>> test_result("COCCNC(=O)C1CC(=O)N(c2ccc(F)c(Cl)c2)C1 (stereo not given)")
105
